The measured values listed here are drawn from patent US12269800B2.

This section presents compounds with their documented Human Plasma Prodrug (%) values.
# measurement notes: Plasma Stability Assay of Example A3, human plasma
# setup conditions: % of prodrug compound remaining, 37° C., 60 min
Only the number, expressed in %, is required.

Worked set:
COc1ccc([C@@]23CCC(OC(=O)c4ccc(C#N)cc4)=C[C@@H]2N(C)CC3)cc1OC [Compound 354]; 42
COc1ccc([C@@]23CCC(OC(=O)c4c(C)cccc4C)=C[C@@H]2N(C)CC3)cc1OC [Compound 372]; 94

Name the recorded Human Plasma Prodrug (%) for COc1ccc([C@@]23CCC(OC(=O)c4cccc(C(C)(C)C)c4)=C[C@@H]2N(C)CC3)cc1OC [Compound 375] .
97

---

This section presents compounds with their documented Condition 1 Conversion (%) values.
# measurement notes: Hydrolysis Assay of Example A2, Condition 1 (SGF with pepsin, pH 1.5, 37° C.)
# Assay type: physicochemical
# setup conditions: SGF with pepsin pH 1.5, 37° C., 0.5 mM; time 1 min
Only the number, expressed in %, is required.

CCC(C)CC(=O)OC1=C[C@@H]2N(C)CC[C@]2(c2ccc(OC)c(OC)c2)CC1 (stereo partly drawn); 0
COc1ccc([C@@]23CCC(=NNC(=O)CCCC(=O)O)C[C@@H]2N(C)CC3)cc1OC; 100

Name the recorded Condition 1 Conversion (%) for COc1ccc([C@]23CCN(C)[C@H]2CC2(CC3)OCCS2)cc1OC (stereo partly drawn) .
0

---

# measurement notes: Hydrolysis Assay of Example A2, Condition 1 (SGF with pepsin, pH 1.5, 37° C.)
# Type: physicochemical
# setup conditions: SGF with pepsin pH 1.5, 37° C.; time 1 h; value after the slash
measurement name: Condition 1 Conversion (%), second value of a/b
Only the number, expressed in %, is required.

Worked set:
COc1ccc([C@@]23CCC(=NOC4CCCCO4)C[C@@H]2N(C)CC3)cc1OC (stereo partly shown) [Compound 206]; 2.57
COc1ccc([C@@]23CC/C(=N/OC(C)(C)OC)C[C@@H]2N(C)CC3)cc1OC [Compound 219]; 100
COc1ccc([C@@]23CCC(=NOCC(=O)OC(C)(C)C)C[C@@H]2N(C)CC3)cc1OC [Compound 202]; 0

Name the recorded Condition 1 Conversion (%), second value of a/b for COc1ccc([C@@]23CC/C(=N\OC(C)(C)OC)C[C@@H]2N(C)CC3)cc1OC [Compound 204] .
100

---

# measurement notes: Oral dose pharmacokinetic study in mice (10 mg/kg)
# setup conditions: male, C57BL/6, mouse, plasma, po, 10 mg/kg
measurement name: bioavailability

Name the recorded bioavailability for COc1ccc([C@@]23CCC(=O)C[C@@H]2N(C)CC3)cc1OC [Compound 001, mesembrine, reference compound] .
< 10%

---

# setup conditions: 60 min, 5 µM
This section presents compounds with their documented Rat Plasma Prodrug (%) values.
Only the number, expressed in %, is required.

Worked set:
CCCCCCCC(=O)OC1=C[C@@H]2N(C)CC[C@]2(c2ccc(OC)c(OC)c2)CC1; 0.1
COCCCCC(=O)OC1=C[C@@H]2N(C)CC[C@]2(c2ccc(OC)c(OC)c2)CC1; 0.3
COc1ccc([C@@]23CCC(OC(=O)c4cccc(C)c4C)=C[C@@H]2N(C)CC3)cc1OC; 26.8
COc1ccc([C@@]23CCC(OC(=O)CCN)=C[C@@H]2N(C)CC3)cc1OC; 0.1
CCCC(C)C(=O)OC1=C[C@@H]2N(C)CC[C@]2(c2ccc(OC)c(OC)c2)CC1 (some centres unmarked); 0.0

Name the recorded Rat Plasma Prodrug (%) for COCCOCCC(=O)OC1=C[C@@H]2N(C)CC[C@]2(c2ccc(OC)c(OC)c2)CC1 .
0.1

Name the recorded Rat Plasma Prodrug (%) for COc1ccc([C@@]23CCC(OC(=O)CCC(C)C)=C[C@@H]2N(C)CC3)cc1OC .
0.0

Name the recorded Rat Plasma Prodrug (%) for CCC(CC)C(=O)OC1=C[C@@H]2N(C)CC[C@]2(c2ccc(OC)c(OC)c2)CC1 .
9.5

---

# setup conditions: 120 min, 5 µM
For each record, check the reported Human Plasma Prodrug (%): if it is below 70% write Yes, else write No.

COc1ccc([C@@]23CCC(OC(=O)c4cccc(C)c4)=C[C@@H]2N(C)CC3)cc1OC; No
CCCC(C)C(=O)OC1=C[C@@H]2N(C)CC[C@]2(c2ccc(OC)c(OC)c2)CC1 (stereo partly drawn); Yes
CCC(C)(C)C(=O)OC1=C[C@@H]2N(C)CC[C@]2(c2ccc(OC)c(OC)c2)CC1; Yes
COCCOCCC(=O)OC1=C[C@@H]2N(C)CC[C@]2(c2ccc(OC)c(OC)c2)CC1; Yes
CCCC(CCC)C(=O)OC1=C[C@@H]2N(C)CC[C@]2(c2ccc(OC)c(OC)c2)CC1; No
CCCCC(CC)C(=O)OC1=C[C@@H]2N(C)CC[C@]2(c2ccc(OC)c(OC)c2)CC1 (stereo partly drawn); No
CCC(C)C(=O)OC1=C[C@@H]2N(C)CC[C@]2(c2ccc(OC)c(OC)c2)CC1 (stereo partly drawn); Yes
CCC(CC)C(=O)OC1=C[C@@H]2N(C)CC[C@]2(c2ccc(OC)c(OC)c2)CC1; No

# check: Human Plasma Prodrug (%) < 70% for CCC(C)(CC)C(=O)OC1=C[C@@H]2N(C)CC[C@]2(c2ccc(OC)c(OC)c2)CC1
No

# check: Human Plasma Prodrug (%) < 70% for COCCCCC(=O)OC1=C[C@@H]2N(C)CC[C@]2(c2ccc(OC)c(OC)c2)CC1
Yes

# check: Human Plasma Prodrug (%) < 70% for COc1ccc([C@@]23CCC(OC(=O)c4ccc(C(C)C)cc4)=C[C@@H]2N(C)CC3)cc1OC
No

# check: Human Plasma Prodrug (%) < 70% for COc1ccc([C@@]23CCC(OC(=O)CC(C)(C)C)=C[C@@H]2N(C)CC3)cc1OC
Yes

# check: Human Plasma Prodrug (%) < 70% for COc1ccc([C@@]23CCC(OC(=O)CCN)=C[C@@H]2N(C)CC3)cc1OC
Yes

# check: Human Plasma Prodrug (%) < 70% for COc1ccc([C@@]23CCC(OC(=O)c4c(C)cccc4C)=C[C@@H]2N(C)CC3)cc1OC
No

# check: Human Plasma Prodrug (%) < 70% for COc1ccc([C@@]23CCC(OC(=O)c4cccc(C)c4C)=C[C@@H]2N(C)CC3)cc1OC
No

# check: Human Plasma Prodrug (%) < 70% for COc1ccc([C@@]23CCC(OC(=O)CCC(C)C)=C[C@@H]2N(C)CC3)cc1OC
Yes

# check: Human Plasma Prodrug (%) < 70% for CCCC(CC)CC(=O)OC1=C[C@@H]2N(C)CC[C@]2(c2ccc(OC)c(OC)c2)CC1 (stereo partly drawn)
Yes

# check: Human Plasma Prodrug (%) < 70% for COc1ccc([C@@]23CCC(OC(=O)c4c(C)cc(C)cc4C)=C[C@@H]2N(C)CC3)cc1OC
No

# check: Human Plasma Prodrug (%) < 70% for CCCCCCCC(=O)OC1=C[C@@H]2N(C)CC[C@]2(c2ccc(OC)c(OC)c2)CC1
Yes

# check: Human Plasma Prodrug (%) < 70% for CCCCCC(C)C(=O)OC1=C[C@@H]2N(C)CC[C@]2(c2ccc(OC)c(OC)c2)CC1 (stereo partly drawn)
Yes

# check: Human Plasma Prodrug (%) < 70% for CCCC(C)(C)C(=O)OC1=C[C@@H]2N(C)CC[C@]2(c2ccc(OC)c(OC)c2)CC1
No

---

# Assay type: physicochemical
# setup conditions: DI water, 25° C., 0.5 mM, time 1 h
measurement name: Condition 2 Conversion (%)

Worked set:
COc1ccc([C@]23CCN(C)[C@H]2CC2(CC3)Oc3ccccc3O2)cc1OC [Compound 300]; 0%
CCCCC(=O)OC1=C[C@@H]2N(C)CC[C@]2(c2ccc(OC)c(OC)c2)CC1 [Compound 268]; 0%
COc1ccc([C@@]23CCC(OC(=O)c4ccc(C(F)(F)F)cc4)=C[C@@H]2N(C)CC3)cc1OC [Compound 310]; 0%
COc1ccc([C@]23CCN(C)[C@H]2CC2(CC3)OCC(COc3ccccc3OC)O2)cc1OC (some centres unmarked) [Compound 216]; 0%

Name the recorded Condition 2 Conversion (%) for COc1ccc([C@@]23CCC(=NNC(=O)c4ccc(F)cc4)C[C@@H]2N(C)CC3)cc1OC [Compound 220] .
55.36%

Name the recorded Condition 2 Conversion (%) for COc1ccc([C@@]23CCC(=NNC(=O)CCCC(=O)O)C[C@@H]2N(C)CC3)cc1OC [Compound 246] .
75%

Name the recorded Condition 2 Conversion (%) for CCC(C)CC(=O)OC1=C[C@@H]2N(C)CC[C@]2(c2ccc(OC)c(OC)c2)CC1 (some centres unmarked) [Compound 316] .
0%

Name the recorded Condition 2 Conversion (%) for COc1ccc([C@]23CCN(C)[C@H]2CC2(CC3)OCC(C34CC5CC(CC(C5)C3)C4)O2)cc1OC (some centres unmarked) [Compound 281] .
0%
